B1: CPEB3 Ribozyme (parent)
chain: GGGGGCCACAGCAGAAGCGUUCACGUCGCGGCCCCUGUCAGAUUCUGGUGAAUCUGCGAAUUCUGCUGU

Variants of: B1
Assay: self-cleavage, relative activity (ratio to wild type); higher = more cleavage; co-transcriptional
Hi there, I'd appreciate the recorded self-cleavage for every entry that follows.
Numbers only.

In the examples that follow, each entry is paired with its recorded self-cleavage.
variant.id	measured.quantity	val
U64G U67C	self-cleavage	0.788
C34U U38C	self-cleavage	0.962
C32G U36A	self-cleavage	0.255

Lab note: each variant below needs its self-cleavage filled in.
1. C12A A51U
2. G47C U55A
3. G31U G41C

Result:
0.628
1.03
0.283

For every item in the list below, what is its measured self-cleavage?
1. U62G U64A
2. C45A G48A
3. G5U U43A
4. G14A C33G
5. C7U G28A
6. A52C C57A

Result:
[0.49, 1.02, 0.111, 0.414, 0.123, 0.414]

Please report self-cleavage for every entry that follows.
1. A16C A59U
2. G14A C54U
3. C27G U61C

Result:
1. 0.221
2. 0.755
3. 0.169
